# ASSAY_OVERVIEW: basal HepG2 mitochondrial membrane potential changes, profiling panel, cell-based, JC-1 fluorescence, 24 h, 100 nL compound (AID 1167); note: test concentration not given here
# SETUP_CONDITIONS: higher = more signal
ASSAY_ENDPOINT: z-score

>  <MOLECULE>
COCCCNC(=O)[C@@]1(Cc2ccccc2I)c2ccccc2C(=O)N(C2CCCCC2)[C@H]1c1ccc(CO)cc1

>  <z-score>
1.29

$$$$
>  <MOLECULE>
C[C@H]1C2[C@H](Cc3ccccc3)NC(=O)[C@]23C(=O)N[C@@H](Cc2ccccc2)C(=O)N2CCC[C@H]2C(=O)NC/C=C/CC/C=C/C3[C@@H]2O[C@]12C (stereo partly drawn)

>  <z-score>
1.11

$$$$
>  <MOLECULE>
C=C(COC)C(=O)CC[C@H](OC(C)=O)c1ccccc1OCCO

>  <z-score>
1.61

$$$$
>  <MOLECULE>
CN(C)CCCC[C@@H]1NC(=O)[C@H]2C[C@@H](C(=O)NCCCCCCNC(=O)CS)[C@@H](c3cccc(OCCO)c3)N2C1=O

>  <z-score>
-1.27

$$$$
>  <MOLECULE>
C=CCC(OC(C)=O)[C@@H]1[C@@H](N(Cc2ccc(-c3ccccc3)cc2)C(=O)Cc2ccc(OC)cc2)c2cc(OCCCO)ccc2N1C(=O)c1ccc2ccccc2c1 (stereo partly drawn)

>  <z-score>
1.87

$$$$

Measured z-score of COc1cc2c(cc1O)C(C)N(Cc1sc3ccccc3c1Cl)CC2 (stereo not drawn) : -1.08

Measured z-score of "COC(=O)C(CC#Cc1ccc2c(c1)[C@]1(C(=O)N2)[C@H](c2ccccc2OCCO)N2[C@H](c3ccccc3)[C@H](c3ccccc3)OC(=O)[C@H]2[C@@H]1C(=O)N1CCN(c2ncccn2)CC1)C(=O)OC" : -0.735

Measured z-score of CN1C(=O)C2C(C1=O)C1C=C(CCCO)C2C(C2CC2)N1C (stereo not drawn) : 1.18

---

# SYSTEM: Torsin-1A (Homo sapiens)
# ASSAY_OVERVIEW: small-molecule binders of mutant TOR1A in lysate, primary screen, cell lysate, small-molecule microarray, COS7 lysate, 635/667 nm fluorescence (AID 1150);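 note: score pools 667 nm emission and signal to noise measuring lysate protein binding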
# SETUP_CONDITIONS: COS7 hTOR1A mutant lysate, 635 nm fluorescence, higher = more signal
The threshold is inclusive: composite z-score of exactly 0.4 counts as fulfilled; values below receive not fulfilled.

Quick check, composite z-score >= 0.4? "C=CC[C@H](OC(=O)Nc1ccc(SC)cc1)c1ccc(O)c(F)c1"
not fulfilled

Quick check, composite z-score >= 0.4? "CC(=O)NCCCC[C@@H]1NC(=O)[C@H]2C[C@@H](C(=O)O)[C@@H](c3cccc(OCCO)c3)N2C1=O"
fulfilled

Quick check, composite z-score >= 0.4? "C=C[C@@H](CO)NS(=O)(=O)c1ccc(Br)cc1"
not fulfilled

---

# ASSAY_OVERVIEW: yeast growth modulation, basal conditions, primary screen, YJM789 clinical isolate, OD600, 24 h (AID 1089);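 note: growth of clinical yeast isolate S. cerevisiae YJM 789 seeded 1000 cells per well; test concentration not given here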
# SETUP_CONDITIONS: S. cerevisiae YJM789 growth, higher = more signal, called active from +8 up or from −8 down
The threshold is inclusive: z-score of exactly -0.8 counts as Fulfilled; values below receive Not fulfilled.

>  <COMPOUND>
C=CCOC(=O)[C@H]1[C@@H]2C(=O)O[C@@H](c3ccccc3)[C@@H](c3ccccc3)N2[C@@H](c2ccc(OCCOC(=O)[C@@H]3C[C@@H]4C(=O)N[C@@H](Cc5ccccc5)C(=O)N4[C@@H]3c3ccc(O)cc3)cc2)[C@]12C(=O)Nc1ccc(I)cc12

>  <CLASS_ASSIGNMENT>
Fulfilled

$$$$
>  <COMPOUND>
C=CCC(OC(C)=O)[C@@H]1[C@@H](N(Cc2ccc(-c3ccccc3)cc2)C(=O)Cc2ccc(OC)cc2)c2cc(OCCCO)ccc2N1C(=O)Cc1ccc(OC)cc1 (some centres undefined)

>  <CLASS_ASSIGNMENT>
Fulfilled

$$$$
>  <COMPOUND>
CO[C@H]1O[C@H](CO)[C@@H](OC(=O)CCc2ccccc2)[C@@H]2OC(=O)[C@@H](Cc3ccc4ccccc4c3)C/C=C/C[C@H](Cc3ccc4ccccc4c3)C(=O)O[C@@H]12

>  <CLASS_ASSIGNMENT>
Not fulfilled

$$$$

Quick check, z-score >= -0.8? CN1C(=O)C2CC=C(C3=CCO[C@@H]3[C@H]3CCCN3S(=O)(=O)c3ccccc3[N+](=O)[O-])CC2C1=O (some centres undefined)
Fulfilled

Quick check, z-score >= -0.8? "C=C(CCCC)C(=O)CC[C@H](OC(=O)c1ccccc1-c1ccccc1C(=O)O)c1cccc(OCCO)c1"
Fulfilled

Quick check, z-score >= -0.8? "COC(=O)[C@H]1N=C(c2ccc(OCCCO)cc2)O[C@H]1c1ccccc1N=[N+]=[N-]"
Fulfilled

Quick check, z-score >= -0.8? "C=CCOC(=O)[C@@H]1[C@H]2C(=O)O[C@H](c3ccccc3)[C@H](c3ccccc3)N2[C@H](c2ccc(OCCOC(=O)[C@H]3C[C@H]4C(=O)N[C@@H](CCCCN(C)C)C(=O)N4[C@H]3c3cccc(OCCO)c3)cc2)[C@@]12C(=O)Nc1ccccc12"
Fulfilled

Quick check, z-score >= -0.8? "CCOC(=O)C1=CC[C@@H](c2ccccc2)N(S(=O)(=O)c2ccc(C)cc2)[C@@H]1C#N"
Fulfilled

Quick check, z-score >= -0.8? "COC(=O)[C@@]1(Cc2ccccc2)[C@H]2c3cc(C(=O)N(C)C)n(CCF)c3C[C@H]2CN1C(=O)c1ccccc1"
Fulfilled

Quick check, z-score >= -0.8? "CN(C)CCCCCCNC(=O)[C@@H]1C[C@@H]2C(=O)N[C@@H](CCCC[N+](C)(C)C)C(=O)N2[C@@H]1c1cccc(OCCO)c1"
Not fulfilled

Quick check, z-score >= -0.8? "O=C1N(Cc2ccccc2)Cc2ccccc2C[C@@]12COC(c1ccc(OCCCO)cc1)=N2"
Fulfilled

Quick check, z-score >= -0.8? "Cc1ccc(S[C@]2(C(=O)NC(C)C)CC(=O)N(Cc3ccccc3)[C@@H]2c2ccc(CO)cc2)cc1"
Not fulfilled

Quick check, z-score >= -0.8? "Cc1ccc(S(=O)(=O)N2[C@@H](c3ccccc3)C(C(=O)O)=CC[C@H]2c2ccc(F)cc2)cc1"
Fulfilled

Quick check, z-score >= -0.8? "[N-]=[N+]=Nc1ccccc1C[C@@]1(C(=O)NCc2ccccc2)N=C(c2ccc(OCCCO)cc2)O[C@@H]1c1ccccc1"
Not fulfilled

Quick check, z-score >= -0.8? "C=C(CCCC)/C(=C/C[C@@H](OC(C)=O)c1ccc(OCCO)cc1)c1cc(C(=O)OC)ccc1OC"
Fulfilled

Quick check, z-score >= -0.8? "COc1ccc([Si](C)(C)[C@H]2[C@H](CC(=O)N3CCC[C@H]3CO)O[C@@]3(C(=O)N(C)c4ccccc43)[C@@H]2C)cc1"
Fulfilled

Quick check, z-score >= -0.8? "C=CC[C@]12N=C(c3ccc(OCCCO)cc3)O[C@H]1c1ccccc1N(CCC)C2=O"
Not fulfilled

---

Parameter: composite z-score. Scope: all listed entries.
# ASSAY_OVERVIEW: small-molecule microarray binders of probe aDKK1, primary screen, biochemical, biotinylated probe, 635/667 nm fluorescence (AID 1099);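 note: score merges 667nm spot fluorescence with signal to noise across triplicate slides; reference of the scale not given here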
# SETUP_CONDITIONS: higher = more signal
Number only, no unit.

Measured composite z-score of O=C1C2C=CC(C(O)c3ccccn3)N(Nc3ccc([N+](=O)[O-])cc3)C2C(=O)N1c1ccccc1 (stereo not drawn) : 1.01

Measured composite z-score of "O=C1c2ccccc2[C@@]2(Cc3ccccc3N(CC(F)(F)F)C2=O)[C@H](c2ccc(CO)cc2)N1Cc1ccccc1" : -0.449

Measured composite z-score of CC(C)c1ccc(NN2C(C(O)c3ccccc3)C=CC3C(=O)N(c4ccccc4)C(=O)C32)cc1 (stereo not drawn) : 1.25

Measured composite z-score of "C=CCOC(=O)[C@H]1[C@@H]2C(=O)O[C@@H](c3ccccc3)[C@@H](c3ccccc3)N2[C@@H](c2ccc(OCCOC(=O)[C@@H]3C[C@@H]4C(=O)N[C@@H](Cc5ccccc5)C(=O)N4[C@@H]3c3ccc(O)cc3)cc2)[C@]12C(=O)Nc1ccc(I)cc12" : -0.188

Measured composite z-score of "C[N+](C)(C)CCCC[C@@H]1NC(=O)[C@H]2C[C@@H](C(=O)NCCCCCN)[C@@H](c3ccc(O)cc3)N2C1=O" : 0.876

Measured composite z-score of CN1C(=O)C2CC=C(C3=CCO[C@@H]3[C@H]3CCCN3S(=O)(=O)c3ccccc3[N+](=O)[O-])CC2C1=O (stereo partly drawn) : -0.22

Measured composite z-score of "C=C(CC1([C@@H](NP(=O)(c2ccccc2)c2ccccc2)[C@H]2C[C@@H]2CCCC)CC1)c1cccc(OC)c1" : 0.91

Measured composite z-score of [N-]=[N+]=Nc1ccccc1C[C@@]1(C(=O)NCC(O)CO)N=C(c2ccc(OCCCO)cc2)O[C@@H]1c1ccccc1N=[N+]=[N-] (stereo partly drawn) : 0.106

Measured composite z-score of CCCCN1CC=CC23O[C@@H]4C=CCCOC(=O)C4[C@H]2C(=O)N(CCO)[C@@H]3C1=O (stereo partly drawn) : -0.364

Measured composite z-score of CC(C)c1ccc(NN2C(C(O)C(C)c3ccccc3)C=CC3C(=O)N(c4ccccc4)C(=O)C32)cc1 (stereo not drawn) : 1.41

Measured composite z-score of O=C1C2C=CC(C(O)C(c3ccccc3)c3ccccc3)N(Nc3ccccc3F)C2C(=O)N1c1ccccc1 (stereo not drawn) : 0.632

Measured composite z-score of O=C1NC(=O)C2C1C=CC(C(O)C1CCCCC1)N2Nc1ccccn1 (stereo not drawn) : 0.174

Measured composite z-score of C=C(C)C1CN([C@H](CO)c2ccccc2)C(=O)/C1=C\c1ccccc1 (stereo partly drawn) : -0.316
